We begin with a simple list: items and their reported TGI.
- System: DLD-1 colon
- experiment: NCI tumour cell line growth inhibition, 48 h

compound	TGI
COc1ccc2nc3cc(Cl)ccc3c(NCCC(=O)OCC(O)C(O)C(O[C@H](C)C(=O)NC(C)C(=O)NC(CCC(N)=O)C(=O)OCc3ccccc3)C(C=O)NC(C)=O)c2c1 (stereo not given in full)	33.6 µM
CN(C)c1ccccc1CC(c1c[nH]c2ccccc12)c1c[nH]c2ccccc12	30.4 µM
CN(C)CCSC(=Nc1ccccc1)N1C=COC=C1	32.4 µM
O=c1oc2c3ccc4ccccc4c3n(CCN3CCOCC3)c2c2ccccc12	> 100 µM
CCCCC(NC(=O)CC)C(=O)O (stereo not given)	> 100 µM
CC(C)=CCC/C(C)=C/CC/C(C)=C/CC/C=C(\C)CC/C=C(\C)CCC1SC1(C)C (stereo not given)	> 100 µM
Nc1nc(=O)n(C2CC(O)C(O)C(CO)O2)cc1F (stereo not given)	> 100 µM
CC1C(=O)C(C)C(c2cccs2)N(N=O)C1c1cccs1 (stereo not given)	> 100 µM
Cc1ccc(C2(C)NC(=S)N(NC(N)=S)C2=S)cc1 (stereo not given)	> 100 µM
COC(=O)CCC(=O)CC(=O)C(=O)Nc1ccc(F)cc1	> 100 µM
COc1cc(C2c3cc4c(cc3OC3(O)COC(=O)C23)OCO4)cc(OC)c1OC (stereo not given)	> 100 µM
CC(=O)Nc1ccc(C2=N/C(=C\c3ccc(Cl)c(Cl)c3)C(=O)O2)cc1	> 100 µM
CCOC(=O)NC(=O)c1cn(CCCCCOC(=O)NCCCCCCNC(=O)OCCCCCn2cc(C(=O)NC(=O)OCC)c(=O)[nH]c2=O)c(=O)[nH]c1=O	> 100 µM
O=c1c2cc(Br)ccc2[nH]c(=S)n1-c1ccc(Br)cc1	> 100 µM
Cc1cc2cc(Cl)ccc2nc1C(=O)c1ccccc1	> 100 µM

Hello, the source for this data is PubChem BioAssay (NCI), in case you need it.
